Experiment: Oral bioavailability in rat at 10 mg/kg administered as single dose
Assay type: ADME, organism-based
Settings: in vivo
assay-metric: bioavailability (%)
Give just the numeric value; % need not be written.

Qu. For the compound shown here, COCCc1ccc(-c2c(C)nc3c(N4CCOCC4)nccn23)cn1 , give the reported bioavailability.
Ans. 45

###

Test: Drug level in rat brain at 10 mg/kg, sc after 1 hr
Assay type: ADME, organism-based
Design: dose 10 mg/kg, route subcutaneous
Conditions: read-out: Drug uptake
assay-metric: concentration at 1 h (ng/g)
// return numeric value only (unit: ng/g, not printed)

Qu. Data request, read-out concentration at 1 h, for COCCc1ccc(-c2c(C)nc3c(N4CCOCC4)nccn23)cn1
Ans. 1210
